melting point values, listed per item
Answer format: numeric, °C implied, no suffix.

QUERY: Look at this compound and give its reported melting point. O=c1[nH]nc2cc(-c3ccccc3)c3cc(C(c4ccc(Cl)cc4)n4ccnc4)ccc3n12 (racemic) (hydrate or solvate)
RESULT: 198.3

----------
measured endpoint: melting point (°C)
Answer format: numeric, °C implied, no suffix.

Example cases with answers are listed next.
# compound, result unit, melting point
records = [
    ("Cn1cncc1C(c1ccc(Cl)cc1)c1ccc2c(c1)c(-c1cccc(Cl)c1)cc1nnnn12 (centres unmarked) [Comp 94]", "°C", 166),
    ("CN1c2nnnn2-c2ccc(C(O)(c3ccc(Cl)cc3)c3cncn3C)cc2C1c1cccc(Cl)c1 (racemic) [Comp 33]", "°C", 235),
]

# evaluate next
QUERY: Look at this compound and give its reported melting point. Cn1cncc1C(O)(c1ccc(Cl)cc1)c1ccc2c(c1)c(-c1cccc(Cl)c1)nc1nnnn12 (racemic) [Comp 29]
RESULT: 139

----------
measured endpoint: melting point (°C)
Answer format: numeric, °C implied, no suffix.

Example cases with answers are listed next.
# molecule, result unit, value reported
measured = [
    ("Cn1cncc1C(NO)(c1ccc(Cl)cc1)c1ccc2c(c1)c(-c1cccc(Cl)c1)cc1cnnn12 (centres unmarked)", "°C", 191),
    ("Cn1cncc1C(N)(c1ccc(Cl)cc1)c1ccc2c(c1)c(-c1cccc(Cl)c1)cc1nnnn12 (centres unmarked) [Comp 27]", "°C", 172),
    ("Cn1cncc1C(N)(c1ccc(Cl)cc1)c1ccc2c(c1)c(-c1cccc(Cl)c1)nc1nnnn12 (racemic)", "°C", 159),
    ("CNC(c1ccc(Cl)cc1)(c1ccc2c(c1)c(-c1cccc(Cl)c1)cc1nnnn12)c1cncn1C (centres unmarked)", "°C", 167),
    ("Cn1cncc1C(O)(c1ccc(Cl)cc1)c1ccc2c(c1)C(c1cccc(Cl)c1)Nc1nnnn1-2 (racemic)", "°C", 212),
    ("Cn1cncc1C(O)(c1ccc(Cl)cc1)c1ccc2c(c1)c(-c1cccc(Cl)c1)cc1cnnn12 (racemic)", "°C", 222),
    ("Fc1ccc(C(c2ccc3c(c2)c(-c2ccccc2)cc2nccn23)n2ccnc2)cc1 (racemic) (hydrate or solvate)", "°C", 204.3),
    ("CCOC(=O)c1cn2c(cc(-c3cccc(Cl)c3)c3cc(C(O)(c4ccc(Cl)cc4)c4cncn4C)ccc32)n1 (centres unmarked)", "°C", 143),
    ("Cn1cncc1C(N)(c1ccc(Cl)cc1)c1ccc2c(c1)c(-c1cccc(Cl)c1)cc1nnnn12 (centres unmarked) [Comp 28]", "°C", 180),
    ("CNCC(=O)NC(c1ccc(Cl)cc1)(c1ccc2c(c1)c(-c1cccc(Cl)c1)cc1nnnn12)c1cncn1C (centres unmarked)", "°C", 224),
]

QUERY: Look at this molecule and give its reported melting point. CNc1ncc(C(c2ccc(Cl)cc2)c2ccc3c(c2)c(-c2cccc(Cl)c2)cc2nnnn23)n1C (centres unmarked)
RESULT: 206

QUERY: Similarly, Cn1cncc1C(OCCO)(c1ccc(Cl)cc1)c1ccc2c(c1)c(-c1cccc(Cl)c1)cc1nnnn12 (centres unmarked) (hydrate or solvate) ?
RESULT: 150
